Origin of values: ChEMBL document CHEMBL1961873

Each entry below carries its recorded inhibition.
# test.target: Ephrin type-A receptor 3 (Homo sapiens) (UniProt P29320);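 further: values are mean inhibition of EPHA3, from the GSK PKIS dataset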
# Sequence (P29320 whole entry): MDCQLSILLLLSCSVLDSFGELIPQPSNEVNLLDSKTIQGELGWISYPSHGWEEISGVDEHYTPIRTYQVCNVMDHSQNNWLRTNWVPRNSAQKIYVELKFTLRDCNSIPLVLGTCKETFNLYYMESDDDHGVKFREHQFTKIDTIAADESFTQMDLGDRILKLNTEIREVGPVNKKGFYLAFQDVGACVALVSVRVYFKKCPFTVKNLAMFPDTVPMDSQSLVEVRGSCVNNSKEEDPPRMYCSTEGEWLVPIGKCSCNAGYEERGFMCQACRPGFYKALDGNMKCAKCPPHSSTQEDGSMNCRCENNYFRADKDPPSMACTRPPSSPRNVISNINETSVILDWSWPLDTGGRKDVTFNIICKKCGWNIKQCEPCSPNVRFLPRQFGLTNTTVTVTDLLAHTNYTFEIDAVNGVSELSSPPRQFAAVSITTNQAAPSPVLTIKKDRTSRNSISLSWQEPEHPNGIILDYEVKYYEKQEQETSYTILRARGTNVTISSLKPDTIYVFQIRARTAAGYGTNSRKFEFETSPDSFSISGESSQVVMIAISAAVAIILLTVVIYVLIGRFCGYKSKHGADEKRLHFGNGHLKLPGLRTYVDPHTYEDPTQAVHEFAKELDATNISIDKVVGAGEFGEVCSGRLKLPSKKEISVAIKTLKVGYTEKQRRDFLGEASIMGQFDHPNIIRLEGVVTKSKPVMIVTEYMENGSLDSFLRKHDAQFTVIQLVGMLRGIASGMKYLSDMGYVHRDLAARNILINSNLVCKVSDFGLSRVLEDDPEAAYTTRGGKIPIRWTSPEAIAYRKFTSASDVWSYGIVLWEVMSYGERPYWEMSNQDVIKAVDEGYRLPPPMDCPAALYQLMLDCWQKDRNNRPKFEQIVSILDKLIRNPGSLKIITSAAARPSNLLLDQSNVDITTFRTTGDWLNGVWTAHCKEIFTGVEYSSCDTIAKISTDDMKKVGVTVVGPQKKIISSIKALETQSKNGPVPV
# study.conditions: at 0.1 µM
endpoint.label: inhibition (%)

1) Cc1cc(O)cc(C)c1/C=C/c1cncc(C(=O)N(C)C)c1; 6.48
2) Cc1cc(-c2ccccn2)cc(C)c1/C=C/c1cncc(-c2nn[nH]n2)c1; 3.5
3) Oc1cccc(-c2nc(-c3ccccc3)[nH]c2-c2ccncc2)c1; 7.79
4) NS(=O)(=O)c1cccc(-c2cc3ccncc3cc2OCc2ccccc2)c1; 2.7
5) Cc1ccc2c(-c3ccnc(Nc4cccc(C(F)(F)F)c4)n3)c(-c3ccccc3)nn2n1; 5.98

---

Each entry below carries its recorded inhibition.
# test.target: Protein kinase C alpha type (Homo sapiens) (UniProt P17252);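 further: reported value is the mean inhibition, measured within the GSK PKIS screening panel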
# study.conditions: at 1 µM
endpoint.label: inhibition

1. CN(C)c1cc2c(Nc3ccc4c(cnn4Cc4ccccc4)c3)ncnc2cn1; 0.82%
2. c1ccc(Cc2nc3ccc(Nc4ncnc5ccccc45)cc3[nH]2)cc1; 4.52%
3. Cc1nc(-c2ccccc2)n2nc(NCCCN3CCOCC3)ncc12; 0.9%
4. FC(F)(F)c1ccc(-c2nn3ncccc3c2-c2ccnc(Nc3ccc4c(c3)OCCO4)n2)cc1; 1.28%

---

# test.target: Testis-specific serine/threonine-protein kinase 1 (Homo sapiens);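 further: mean percent inhibition of TSSK1, from the GSK PKIS screening dataset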
# Sequence (whole entry): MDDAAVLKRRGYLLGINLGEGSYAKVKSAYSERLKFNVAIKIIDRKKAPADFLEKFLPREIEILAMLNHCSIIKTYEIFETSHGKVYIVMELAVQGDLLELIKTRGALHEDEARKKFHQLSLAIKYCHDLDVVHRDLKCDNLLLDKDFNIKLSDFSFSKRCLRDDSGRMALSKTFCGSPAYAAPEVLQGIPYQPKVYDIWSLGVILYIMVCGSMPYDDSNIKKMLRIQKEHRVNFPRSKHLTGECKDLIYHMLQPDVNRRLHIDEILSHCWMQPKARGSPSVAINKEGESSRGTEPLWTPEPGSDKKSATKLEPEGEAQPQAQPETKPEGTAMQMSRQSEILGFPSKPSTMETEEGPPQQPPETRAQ
# study.conditions: at 0.1 µM
Each entry below carries its recorded inhibition.
endpoint.label: inhibition (%)

1. CN1CCN(C(=O)c2ccc(NC(=O)Nc3ccc(N(C)c4ccnc(Nc5ccc(CS(C)(=O)=O)cc5)n4)cc3)cc2)CC1; 0.02
2. NS(=O)(=O)c1cccc(Nc2cc(-c3ccc(F)cc3)n[nH]2)c1; 4.49
3. Cc1ccc(O)cc1Nc1ccnc2ccc(S(C)(=O)=O)cc12; 3.95
4. C[C@@H](Oc1cc(-n2cnc3ccc(OC[C@@H](O)CO)cc32)sc1C(N)=O)c1ccccc1Cl; 0.57
5. CS(=O)(=O)CCNCc1nc(-c2ccc3ncnc(Nc4ccc(OCc5cccc(C(F)(F)F)c5)cc4)c3c2)cs1; 2.83
6. NS(=O)(=O)c1ccc(Nc2cc(-c3cccc(O)c3)n[nH]2)cc1; 3.95
7. OCc1ccc(-c2nc(-c3ccccn3)c(-c3ccc4c(c3)OCO4)[nH]2)cc1; 3.19
8. CCn1c(-c2nonc2N)nc2c(C#CC(C)(C)O)nc(OCCNC)cc21; 5.86

---

Each entry below carries its recorded inhibition.
# Tested on: Mast/stem cell growth factor receptor Kit (Homo sapiens), P10721 [T670I]
# Sequence (P10721 whole entry T670I): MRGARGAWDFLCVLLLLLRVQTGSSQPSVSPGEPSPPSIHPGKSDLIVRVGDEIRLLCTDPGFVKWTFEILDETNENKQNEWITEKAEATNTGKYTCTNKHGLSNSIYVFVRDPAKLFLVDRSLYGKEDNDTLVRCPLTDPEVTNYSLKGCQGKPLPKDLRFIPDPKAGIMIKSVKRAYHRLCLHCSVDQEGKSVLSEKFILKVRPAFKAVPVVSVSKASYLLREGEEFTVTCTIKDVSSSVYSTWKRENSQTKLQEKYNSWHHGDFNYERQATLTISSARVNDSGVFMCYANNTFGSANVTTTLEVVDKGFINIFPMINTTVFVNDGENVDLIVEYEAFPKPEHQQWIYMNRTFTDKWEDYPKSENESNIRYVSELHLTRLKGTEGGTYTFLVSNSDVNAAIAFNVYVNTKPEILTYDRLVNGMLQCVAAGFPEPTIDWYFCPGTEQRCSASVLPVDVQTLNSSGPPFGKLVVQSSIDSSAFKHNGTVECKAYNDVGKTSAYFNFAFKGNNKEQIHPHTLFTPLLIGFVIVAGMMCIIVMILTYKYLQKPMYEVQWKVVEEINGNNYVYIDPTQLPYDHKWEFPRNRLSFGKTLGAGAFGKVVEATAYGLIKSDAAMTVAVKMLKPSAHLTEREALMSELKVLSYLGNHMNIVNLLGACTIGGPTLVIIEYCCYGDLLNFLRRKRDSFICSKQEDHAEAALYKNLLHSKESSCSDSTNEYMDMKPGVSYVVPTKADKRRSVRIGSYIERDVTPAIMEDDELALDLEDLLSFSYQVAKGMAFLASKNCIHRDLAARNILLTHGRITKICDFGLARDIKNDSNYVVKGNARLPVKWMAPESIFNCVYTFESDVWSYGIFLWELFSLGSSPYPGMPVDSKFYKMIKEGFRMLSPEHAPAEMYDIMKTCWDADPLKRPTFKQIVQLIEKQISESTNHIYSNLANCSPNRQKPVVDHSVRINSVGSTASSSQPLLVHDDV
# study.conditions: at 1 µM
endpoint.label: inhibition (%)

1. COc1cc2ncnc(Nc3ccc4c(cnn4Cc4ccccc4)c3)c2cc1OC; 2.58
2. CCOc1nccc2c1nc(-c1nonc1N)n2CC; 6.04
3. N#Cc1cccc(Nc2nccc(-c3cnn4ncccc34)n2)c1; 88.5
4. O=S(=O)(CCOCc1ccc(-c2ccc3ncnc(Nc4ccc(OCc5cccc(F)c5)c(Cl)c4)c3c2)o1)c1ccccc1; 0.78
5. Oc1cccc(-c2nc(-c3ccccc3)[nH]c2-c2ccncc2)c1; 3.34
6. CS(=O)(=O)Nc1cccc(-c2ccc3c(NC(=O)C4CC4)n[nH]c3c2)c1; -2.29
7. CN(C)C(=O)O[C@@H]1CN[C@@H](C#Cc2cc3ncnc(Nc4ccc(OCc5cccc(F)c5)c(Cl)c4)c3s2)C1; -2.74
8. c1ccc(Cc2nc3ccc(Nc4ncnc5ccccc45)cc3[nH]2)cc1; 3.71
9. NS(=O)(=O)c1ccc(N/N=C2\C(=O)Nc3ccc(Cl)cc32)cc1; 41.2
10. CCS(=O)(=O)c1ccc(OC)c(Nc2nccc(N(C)c3ccc4c(C)n[nH]c4c3)n2)c1; 6.79
11. NS(=O)(=O)c1cccc(-c2cc3ccncc3cc2OCc2ccccc2)c1; 1.1
12. COC(=O)Nc1nc2cc(Oc3ccc(NC(=O)Nc4cccc(Br)c4)cc3)ccc2[nH]1; 56.8
13. C[C@@H](Oc1cc(-n2cnc3ccc(OC[C@@H](O)CO)cc32)sc1C(N)=O)c1ccccc1Cl; 0.87
14. Cc1cc(Cl)cc2c1NC(=O)C2=NNc1ccc(S(N)(=O)=O)cc1; 3.29

---

# test.target: Cyclin-dependent kinase 5 (Homo sapiens) (UniProt Q00535);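 further: enzyme tested as the CDK5/p35 complex, values are mean percent inhibition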
# Sequence (Q00535 whole entry, looked up): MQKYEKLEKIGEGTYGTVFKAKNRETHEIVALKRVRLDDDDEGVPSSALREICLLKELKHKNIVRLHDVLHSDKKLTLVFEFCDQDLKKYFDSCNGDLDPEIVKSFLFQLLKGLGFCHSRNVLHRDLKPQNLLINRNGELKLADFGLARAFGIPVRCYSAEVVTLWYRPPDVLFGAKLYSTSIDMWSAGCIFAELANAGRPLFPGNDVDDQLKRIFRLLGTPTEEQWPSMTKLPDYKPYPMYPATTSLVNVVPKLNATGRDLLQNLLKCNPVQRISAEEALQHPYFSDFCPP
# study.conditions: at 0.1 µM
Each entry below carries its recorded inhibition.
endpoint.label: inhibition (%)

1. NS(=O)(=O)c1ccc(-c2cc3ccncc3cc2OCc2ccccc2)cc1; -0.11
2. CN(C)C(=O)O[C@H]1CN[C@H](C#Cc2cc3ncnc(Nc4ccc(OCc5cccc(F)c5)c(Cl)c4)c3s2)C1; 0.51
3. NS(=O)(=O)c1cccc(-c2cc3ccncc3cc2OCc2ccccc2)c1; 1.96
4. Nc1nccc(C#Cc2cncnc2Nc2ccc(OCc3cccc(F)c3)c(Cl)c2)n1; 1.09
5. O=C1Nc2ccccc2/C1=C/Nc1ccc2[nH]c(=O)[nH]c2c1; 3.13
6. NC(=O)c1sc(-n2cnc3ccccc32)cc1OCc1ccccc1Br; 3.59
7. N#Cc1cccc(Nc2nccc(-c3cnn4ncccc34)n2)c1; 80.3
8. NS(=O)(=O)c1cccc(Nc2cc(-c3ccc(F)cc3)n[nH]2)c1; 5.52
9. c1ccc(Cc2nc3ccc(Nc4ncnc5ccccc45)cc3[nH]2)cc1; 3.52
10. CN(c1ccc(NC(=O)Nc2ccc(OC(F)(F)F)cc2)cc1)c1ccnc(Nc2cccc(S(N)(=O)=O)c2)n1; 0.45
11. COC(=O)c1cncc(/C=C/c2c(C)cc(O)cc2C)c1; 1.02
12. COC(=O)Nc1nc2cc(Oc3ccc(NC(=O)Nc4cccc(Br)c4)cc3)ccc2[nH]1; 0.44
13. Cc1ccc(C(=O)NC2CC2)cc1-c1ccc2[nH]ncc2c1; 0.3
14. CCn1c(-c2nonc2N)nc2ccc(F)cc21; 0.58
15. COc1ccc(-c2nn3ncccc3c2-c2ccnc(Nc3cccc(C(F)(F)F)c3)n2)cc1; 0.07
16. COc1cc2ncn(-c3cc(OCc4ccccc4S(C)(=O)=O)c(C#N)s3)c2cc1OC; 1.86
17. COc1cc2ncnc(Nc3ccc4c(cnn4Cc4ccccc4)c3)c2cc1OC; 4.4
18. CCOc1nccc2c1nc(-c1nonc1N)n2CC; 0.91
19. CS(=O)(=O)CCNCc1nc(-c2ccc3ncnc(Nc4ccc(OCc5cccc(C(F)(F)F)c5)cc4)c3c2)cs1; 0.46
20. CN1CCN(C(=O)c2ccc(NC(=O)Nc3ccc(N(C)c4ccnc(Nc5ccc(CS(C)(=O)=O)cc5)n4)cc3)cc2)CC1; 1.54
21. Nc1ccc(C#Cc2cncnc2Nc2ccc(OCc3cccc(F)c3)c(Cl)c2)cc1; 0.23
22. CC(C)c1ccc2c(c1)NC(=O)/C2=N/Nc1ccc(S(N)(=O)=O)cc1; 1.59
23. CCS(=O)(=O)c1ccc(OC)c(Nc2nccc(N(C)c3ccc4c(C)n[nH]c4c3)n2)c1; 0.13
24. NS(=O)(=O)c1ccc(NC=C2C(=O)Nc3ccc4ncsc4c32)cc1; 68.2
25. FC(F)(F)c1ccc(-c2nn3ncccc3c2-c2ccnc(Nc3ccc4c(c3)OCCO4)n2)cc1; 5.49
26. CCCN1CCCC(c2ccc(Nc3nc(Nc4cc(F)ccc4C(N)=O)c4cc[nH]c4n3)c(OC)c2)C1 (stereo unspecified); 0.43

---

Each entry below carries its recorded inhibition.
# test.target: RAC-beta serine/threonine-protein kinase (Homo sapiens) (UniProt P31751)
# Sequence (P31751 whole entry): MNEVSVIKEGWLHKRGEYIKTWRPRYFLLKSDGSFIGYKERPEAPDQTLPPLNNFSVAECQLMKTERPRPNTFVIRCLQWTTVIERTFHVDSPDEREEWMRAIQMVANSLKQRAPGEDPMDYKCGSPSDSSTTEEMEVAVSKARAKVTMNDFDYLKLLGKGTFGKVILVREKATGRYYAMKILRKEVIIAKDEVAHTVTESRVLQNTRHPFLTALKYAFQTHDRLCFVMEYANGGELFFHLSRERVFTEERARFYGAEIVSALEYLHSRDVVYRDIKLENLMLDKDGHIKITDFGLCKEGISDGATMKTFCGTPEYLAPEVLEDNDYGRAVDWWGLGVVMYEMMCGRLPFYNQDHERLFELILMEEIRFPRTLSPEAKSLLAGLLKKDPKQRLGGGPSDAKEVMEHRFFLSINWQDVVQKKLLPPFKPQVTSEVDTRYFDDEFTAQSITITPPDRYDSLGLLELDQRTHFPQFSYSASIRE
# study.conditions: at 1 µM
# Description: GSK_PKIS: AKT2 mean inhibition at 1 uM [Nanosyn]
endpoint.label: inhibition (%)

1) O=S(=O)(CCOCc1ccc(-c2ccc3ncnc(Nc4ccc(OCc5cccc(F)c5)c(Cl)c4)c3c2)o1)c1ccccc1; 1.21
2) Nc1nccc(-c2c(-c3ccc(F)cc3)ncn2CCCN2CCOCC2)n1; 0.79
3) COc1cccc(-n2nc(C)c3c(N/N=C(\C)c4ccncc4)ncnc32)c1; 0.3
4) CC(C)c1ccc2c(c1)NC(=O)/C2=N/Nc1ccc(S(N)(=O)=O)cc1; 0.73
5) NC(=O)c1cccc(Nc2nccc(Nc3cccc(F)c3)n2)c1; 0.58

---

Each entry below carries its recorded inhibition.
# test.target: Serine/threonine-protein kinase DCLK2 (Homo sapiens);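 further: each value is a mean percent inhibition of DCLK2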
# study.conditions: at 1 µM
endpoint.label: inhibition (%)

1) NS(=O)(=O)c1cccc(Nc2cc(-c3ccc(F)cc3)n[nH]2)c1; -0.18
2) COC(=O)Nc1nc2cc(Oc3ccc(NC(=O)Nc4cccc(Br)c4)cc3)ccc2[nH]1; 4.24
3) COc1ccc2ncnc(Nc3ccc(OCc4ccccc4)cc3)c2c1; -8.44
4) NC(=O)c1cccc(Nc2nccc(Nc3cccc(F)c3)n2)c1; 0.44
5) COc1cc(Nc2nccc(-c3cnn4ncccc34)n2)cc(OC)c1; -3.23
